Origin of the recorded values: patent US20210253598A1

# study target: MCL-1 (Homo sapiens, UniProt Q07820, K194A/K197A/R201A)
# Sequence (Q07820 173-321 K194A/K197A/R201A, looked up): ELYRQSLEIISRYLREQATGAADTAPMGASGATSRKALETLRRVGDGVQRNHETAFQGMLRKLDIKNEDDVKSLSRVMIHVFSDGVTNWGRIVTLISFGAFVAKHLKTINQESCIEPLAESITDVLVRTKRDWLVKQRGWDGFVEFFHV
# protocol description: Protein-protein interaction assay MCL-1/Noxa BH3 peptide, TR-FRET (MCL-1 assay, Assay 1)
# Assay type: binding
# settings: MCL-1 Assay [M] (median), MBP-MCL-1 / Noxa BH3 peptide
Quick reference for IC50 among some compounds
Report the figure in M without appending any unit label.

In the examples that follow, each entry is paired with its recorded IC50.
compound	study target	IC50 [M]
Cc1c2c(nn1C)COCc1ccccc1Cn1c(C(=O)O)c(CCCOc3cccc4cc(F)ccc34)c3ccc(F)c-2c31 (single isomer, unassigned; enantiomer 2) [Example 66]	MCL-1 (Homo sapiens, UniProt Q07820, K194A/K197A/R201A)	6.2e-09
Cc1c2c(nn1C)COCc1ccccc1Cn1c(C(=O)O)c(CCCOc3cccc4cc(F)ccc34)c3ccc(Cl)c-2c31 (single isomer, unassigned; enantiomer 1) [Example 49]	MCL-1 (Homo sapiens, UniProt Q07820, K194A/K197A/R201A)	4.7e-10

QUERY: Output measured IC50 for this item: Cc1c2c(nn1C)CN(C)Cc1ccccc1Cn1c(C(=O)O)c(CCCOc3cccc4ccccc34)c3cccc-2c31 (single isomer, unassigned; enantiomer 2) [Example 16]
RESULT: 1.1e-07

QUERY: Output measured IC50 for this item: Cc1c2c(nn1C)COCc1ccccc1Cn1c(C(=O)O)c(CCCOc3cccc4c3CCCC4)c3ccc(F)c-2c31 (racemic) [Example 62]
RESULT: 2.6e-09

QUERY: Output measured IC50 for this item: CCc1c2c(nn1C)COCc1ccccc1Cn1c(C(=O)O)c(CCCOc3cccc4ccccc34)c3ccc(F)c-2c31 (single isomer, unassigned; enantiomer 2) [Example 72]
RESULT: 5.2e-09

QUERY: Output measured IC50 for this item: CCc1nn(C)c2c1-c1c(F)ccc3c(CCCOc4cccc5cc(F)ccc45)c(C(=O)O)n(c13)Cc1ccccc1COC2 (racemic) [Example 90]
RESULT: 3.2e-09

----------
Quick reference for IC50 among some molecules
# study target: MCL1 protein (Homo sapiens, UniProt Q07820)
# Construct: this assay uses full length endogenous MCL1 protein at mitochondria outer membrane; endogenous in cells; host or cells: RKO colon cancer cell line
# Sequence (Q07820 whole entry): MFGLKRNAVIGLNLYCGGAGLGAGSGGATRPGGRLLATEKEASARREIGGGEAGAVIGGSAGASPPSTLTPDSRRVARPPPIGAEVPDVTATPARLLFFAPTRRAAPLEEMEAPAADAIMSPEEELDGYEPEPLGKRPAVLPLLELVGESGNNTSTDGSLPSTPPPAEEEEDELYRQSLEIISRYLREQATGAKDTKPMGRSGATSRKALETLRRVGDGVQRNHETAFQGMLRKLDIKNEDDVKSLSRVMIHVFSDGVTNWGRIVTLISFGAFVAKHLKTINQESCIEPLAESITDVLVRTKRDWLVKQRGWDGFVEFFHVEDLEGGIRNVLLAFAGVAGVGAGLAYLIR
# protocol description: PIxEL: protein-protein interaction in permeabilized cells by ELISA (Assay 5)
# Type: cell-based
# settings: PIxEL [M] (median), permeabilized RKO cells, biotin-BIM BH3 peptide 0.2 μM, serum free
Report the figure in M without appending any unit label.

In the examples that follow, each entry is paired with its recorded IC50.
molecule	IC50 / M
Cc1c2c(nn1C)COCc1ccccc1Cn1c(C(=O)O)c(CCCOc3cccc4cc(F)ccc34)c3ccc(Cl)c-2c31 (single isomer, unassigned; enantiomer 2) [Example 50]	1.69e-06
Cc1c2c(nn1C)COCc1ccccc1Cn1c(C(=O)O)c(CCCOc3cccc4cc(F)ccc34)c3ccc(Cl)c-2c31 (single isomer, unassigned; enantiomer 1) [Example 49]	7.88e-07
Cc1c2c(nn1C)COCc1ccccc1Cn1c(C(=O)O)c(CCCOc3cccc4ccccc34)c3ccc(F)c-2c31 (single isomer, unassigned; enantiomer 1)	2.16e-06
CCc1c2c(nn1C)COCc1ccccc1Cn1c(C(=O)O)c(CCCOc3cccc4cc(F)ccc34)c3ccc(Cl)c-2c31 (single isomer, unassigned; enantiomer 2) [Example 56]	2.35e-06

Now look at this entry.
QUERY: Give IC50; test system MCL1 protein (Homo sapiens, UniProt Q07820); molecule Cc1c2c(nn1C)COCc1ccccc1Cn1c(C(=O)O)c(CCCOc3cccc4cc(F)ccc34)c3ccc(F)c-2c31 (single isomer, unassigned; enantiomer 1)
RESULT: 1.04e-06

----------
# System: SUDHL5
# protocol description: Induction of cytotoxicity in SUDHL5 cells, CellTiter-Glo (Assay 6)
# Format: cell-based
# settings: SUDHL5, 5 hours incubation, median, read-out: Cytotox SUDHL5 [M] (median)
Quick reference for log10 IC50 among some molecules
Kindly note that the scale is log10 and the underlying IC50 is in M.

In the examples that follow, each entry is paired with its recorded log10 IC50.
molecule	study target	meas value
Cc1c2c(nn1C)CN(S(=O)(=O)c1ccc(N3CCOCC3)nc1)Cc1ccccc1Cn1c(C(=O)O)c(CCCOc3cccc4ccccc34)c3cccc-2c31 (single isomer, unassigned; enantiomer 1) [Example 18]	SUDHL5	-5.85
Cc1c2c(nn1C)COCc1ccccc1Cn1c(C(=O)O)c(CCCOc3cccc4ccccc34)c3cccc-2c31 (single isomer, unassigned; enantiomer 1) [Example 2]	SUDHL5	-5.64
CCc1nn(C)c2c1-c1c(Cl)ccc3c(CCCOc4cccc5cc(F)ccc45)c(C(=O)O)n(c13)Cc1ccccc1COC2 (single isomer, unassigned; enantiomer 1)	SUDHL5	-6.09
CCc1c2c(nn1C)COCc1ccccc1Cn1c(C(=O)O)c(CCCOc3cccc4cc(F)ccc34)c3ccc(Cl)c-2c31 (single isomer, unassigned; enantiomer 2) [Example 56]	SUDHL5	-5.80
Cc1c2c(nn1C)CN(C)Cc1ccccc1Cn1c(C(=O)O)c(CCCOc3cccc4ccccc34)c3cccc-2c31 (single isomer, unassigned; enantiomer 2) [Example 16]	SUDHL5	-4.62
Cc1c2c(nn1C)COCc1ccccc1Cn1c(C(=O)O)c(CCCOc3cccc4ccccc34)c3cccc-2c31 (single isomer, unassigned; enantiomer 2) [Example 3]	SUDHL5	-5.08

Now look at this entry.
QUERY: Output measured log10 IC50 for this item: Cc1c2c(nn1C)COCc1ccccc1Cn1c(C(=O)O)c(CCCOc3cccc4ccccc34)c3ccc(F)c-2c31 (single isomer, unassigned; enantiomer 2) [Example 69]
RESULT: -4.85

----------
Quick reference for IC50 among some compounds
# study target: MCL-1 (Homo sapiens, UniProt Q07820, K194A/K197A/R201A)
# protocol description: Protein-protein interaction assay MCL-1/Noxa BH3 peptide, TR-FRET (MCL-1 assay, Assay 1)
# Type: binding
# settings: MCL-1 Assay [M] (median), MBP-MCL-1 / Noxa BH3 peptide
Report the figure in M without appending any unit label.

In the examples that follow, each entry is paired with its recorded IC50.
> print(dat)
                                   compound  quantity.kind  meas.value
1  CCc1c2c(nn1C)COCc1ccccc1Cn1c(C(=O)O)c(CCCOc3cccc4cc(F)ccc34)c3ccc(Cl)c-2c31 (racemic) [Example 54]           IC50     8.3e-10
2  Cc1c2c(nn1C)COCc1ccccc1Cn1c(C(=O)O)c(CCCOc3cccc4c3CCC4)c3ccc(F)c-2c31 (racemic)           IC50     2.1e-09

Now look at this entry.
QUERY: Give IC50; test system MCL-1 (Homo sapiens, UniProt Q07820, K194A/K197A/R201A); compound Cc1nn(C)c2c1-c1c(F)ccc3c(CCCOc4cccc5ccccc45)c(C(=O)O)n(c13)Cc1ccccc1COC2 (racemic)
RESULT: 7.6e-09

----------
# study target: MCL-1 (Homo sapiens, UniProt Q07820, K194A/K197A/R201A)
# protocol description: Protein-protein interaction assay MCL-1/Noxa BH3 peptide, TR-FRET (MCL-1 assay, Assay 1)
# Assay type: binding
# settings: MCL-1 Assay [M] (median), MBP-MCL-1 / Noxa BH3 peptide
Quick reference for IC50 among some compounds
Report the figure in M without appending any unit label.

In the examples that follow, each entry is paired with its recorded IC50.
compound	study target	meas value
Cc1c2c(nn1C)CN(C(=O)CC1CCOCC1)Cc1ccccc1Cn1c(C(=O)O)c(CCCOc3cccc4ccccc34)c3cccc-2c31 (single isomer, unassigned; enantiomer 1) [Example 22]	MCL-1 (Homo sapiens, UniProt Q07820, K194A/K197A/R201A)	6.5e-07
Cc1c2c(nn1C)COCc1ccccc1Cn1c(C(=O)O)c(CCCOc3cccc4cc(F)ccc34)c3ccc(Cl)c-2c31 (racemic) [Example 48]	MCL-1 (Homo sapiens, UniProt Q07820, K194A/K197A/R201A)	5.9e-10
Cc1c2c(nn1C)CN(C)Cc1ccccc1Cn1c(C(=O)O)c(CCCOc3cccc4ccccc34)c3cccc-2c31 (single isomer, unassigned; enantiomer 1) [Example 15]	MCL-1 (Homo sapiens, UniProt Q07820, K194A/K197A/R201A)	6.9e-09
Cc1c2c(nn1C)CN(C(=O)NC1CCOCC1)Cc1ccccc1Cn1c(C(=O)O)c(CCCOc3cccc4ccccc34)c3cccc-2c31 (racemic) [Example 24]	MCL-1 (Homo sapiens, UniProt Q07820, K194A/K197A/R201A)	5.3e-08
Cc1c2c(nn1C)CN(S(=O)(=O)c1ccc(N3CCOCC3)nc1)Cc1ccccc1Cn1c(C(=O)O)c(CCCOc3cccc4ccccc34)c3cccc-2c31 (single isomer, unassigned; enantiomer 1) [Example 18]	MCL-1 (Homo sapiens, UniProt Q07820, K194A/K197A/R201A)	2.9e-08
Cc1c2c(nn1C)COCc1ccccc1Cn1c(C(=O)O)c(CCCOc3cccc4ccccc34)c3cccc-2c31 (single isomer, unassigned; enantiomer 1) [Example 2]	MCL-1 (Homo sapiens, UniProt Q07820, K194A/K197A/R201A)	2.3e-09
CCc1c2c(nn1C)COCc1ccccc1Cn1c(C(=O)O)c(CCCOc3cccc4c3CCC4)c3ccc(F)c-2c31 (racemic) [Example 78]	MCL-1 (Homo sapiens, UniProt Q07820, K194A/K197A/R201A)	1.9e-09
CCc1c2c(nn1C)COCc1ccccc1Cn1c(C(=O)O)c(CCCOc3cccc4cc(F)ccc34)c3ccc(F)c-2c31 (single isomer, unassigned; enantiomer 1) [Example 74]	MCL-1 (Homo sapiens, UniProt Q07820, K194A/K197A/R201A)	9.2e-10
CCc1nn(C)c2c1-c1c(F)ccc3c(CCCOc4cc(C)c(Cl)c(C)c4)c(C(=O)O)n(c13)Cc1ccccc1COC2 (racemic) [Example 86]	MCL-1 (Homo sapiens, UniProt Q07820, K194A/K197A/R201A)	1.1e-08
Cc1nn(C)c2c1-c1c(F)ccc3c(CCCOc4ccc(F)c5ccccc45)c(C(=O)O)n(c13)Cc1ccccc1COC2 (racemic) [Example 82]	MCL-1 (Homo sapiens, UniProt Q07820, K194A/K197A/R201A)	1.2e-08

QUERY: Output measured IC50 for this item: Cc1c2c(nn1C)COCc1ccccc1Cn1c(C(=O)O)c(CCCOc3ccc(F)c4ccccc34)c3ccc(F)c-2c31 (racemic) [Example 63]
RESULT: 4.5e-09

QUERY: Output measured IC50 for this item: Cc1c2c(nn1C)COCc1cccnc1Cn1c(C(=O)O)c(CCCOc3cccc4ccccc34)c3ccc(Cl)c-2c31 (single isomer, unassigned; enantiomer 2) [Example 41]
RESULT: 5.8e-09

QUERY: Output measured IC50 for this item: Cc1nn(C)c2c1-c1c(F)ccc3c(CCCOc4cccc5c4CCCC5)c(C(=O)O)n(c13)Cc1ccccc1COC2 (racemic) [Example 83]
RESULT: 1e-08

QUERY: Output measured IC50 for this item: CCc1nn(C)c2c1-c1c(F)ccc3c(CCCOc4ccc(F)c5ccccc45)c(C(=O)O)n(c13)Cc1ccccc1COC2 (racemic) [Example 89]
RESULT: 1.2e-08

QUERY: Output measured IC50 for this item: Cc1c2c(nn1C)CN(C(=O)NCC1CCOCC1)Cc1ccccc1Cn1c(C(=O)O)c(CCCOc3cccc4ccccc34)c3cccc-2c31 (single isomer, unassigned; enantiomer 1) [Example 28]
RESULT: 2.8e-07

QUERY: Output measured IC50 for this item: CCc1c2c(nn1C)COCc1ccccc1Cn1c(C(=O)O)c(CCCOc3cccc4cc(F)ccc34)c3ccc(F)c-2c31 (single isomer, unassigned; enantiomer 2) [Example 75]
RESULT: 3e-09

QUERY: Output measured IC50 for this item: Cc1c2c(nn1C)CNCc1ccccc1Cn1c(C(=O)O)c(CCCOc3cccc4ccccc34)c3cccc-2c31 (single isomer, unassigned; enantiomer 2) [Example 13]
RESULT: 1.7e-07

QUERY: Output measured IC50 for this item: CCc1nn(CCN2CCOCC2)c2c1-c1c(Cl)ccc3c(CCCOc4cccc5cc(F)ccc45)c(C(=O)O)n(c13)Cc1ccccc1COC2 (single isomer, unassigned; enantiomer 1) [Example 52]
RESULT: 9.6e-10

QUERY: Output measured IC50 for this item: Cc1c2c(nn1C)CN(C(=O)CC1CCOCC1)Cc1ccccc1Cn1c(C(=O)O)c(CCCOc3cccc4ccccc34)c3cccc-2c31 (single isomer, unassigned; enantiomer 2) [Example 23]
RESULT: 3.9e-08
